B1: library; a variant is named by its letters at N, in order (parent)
chain: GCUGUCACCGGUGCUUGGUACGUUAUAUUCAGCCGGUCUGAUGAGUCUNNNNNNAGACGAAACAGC

Variants of: B1
Assay method text: normalized RNA/DNA level with ligand (relative to sTRSVctl = 100) (log10 (% of sTRSVctl)); HEK293T overexpressing SLC46A1; ligand concentration (+) RNA-Seq: 6 mM; higher = less ribozyme self-cleavage, higher mRNA level
Recorded conditions: with (6R,S)-folinic acid; ligand present: yes
Catalogue of variants with associated normalized RNA/DNA level with ligand (log10)
Property label: normalized RNA/DNA level with ligand (log10)

| Variant annotation | Result |
| --- | --- |
| AGACGC | 2.01 |
| GAUGGU | 2.02 |
| AAUUCA | 2 |
| UACGCA | 2.03 |
| CAGUGG | 2 |
| AUCCAU | 2.01 |
| GGUAUA | 2 |
| ACAUAA | 2 |
| UGCCUC | 2 |
| UAUAGU | 1.97 |
| GAGCUG | 2.07 |
| CCGAAU | 2.02 |
| UCUUUC | 2 |
| GACUCU | 2 |
| UGAACA | 2.01 |
| GAUCUU | 2.02 |
| GCAGAG | 2 |
| CCUCAA | 2 |
| ACGAUA | 2.02 |
| GGCACA | 2.03 |
| UAAGCC | 2.03 |
| AACGAC | 1.99 |
| GAGUCA | 2.01 |
| GGGCGG | 2.06 |
| GUAUCU | 2.04 |
| GUGAGC | 1.96 |
| UCUAGU | 2.04 |
| UAUCGA | 2 |
| UGACGC | 2.03 |
| GAGUGC | 2.03 |
| CUUAAU | 2 |
| GGCCAC | 1.99 |
| ACCUUA | 2.04 |
| CGUACG | 2.03 |
| GCCGCU | 2.04 |
| UUGGAG | 1.99 |
| UGUGUA | 2.01 |
| UGUCUC | 2.05 |
| CAGUUC | 1.98 |
| CGGCCG | 2.03 |
| GACAUU | 2 |
| UGGAUA | 1.99 |
| AUGGAU | 2.01 |
| GUGACG | 2 |
| UUUGGA | 1.98 |
| AGUGGA | 2.02 |
